Each recorded value in this set is attributed to PubChem BioAssay AID1259417.

Experiment: M. tuberculosis growth inhibition, HTS (AID 1259417);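 further: bacteria grown with compound for 5 days at 37 °C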
Conditions: M. tuberculosis growth inhibition; stronger effect = higher value; concentration not given here
The campaign covered roughly 1,100 compounds. About 760 (69%) were called active. So high a share suggests a set chosen from earlier hits. This is one part of the list.
Categories are assigned from the measured inhibition using these intervals: small value = under 40%, mid value = from 40% up to 80%, large value = 80% and over

Example entries and their recorded answers appear below.
compound=CSc1nsc(SCC(=O)N2CCN(c3ccccc3)CC2)n1 category_label="large value"
compound=CC1CCN(C(=S)NC(=O)c2ccc(Cl)cc2)CC1 category_label="mid value"
compound=Cc1ccc(Nc2ccccc2N)cc1 category_label="large value"

Q) Assign a category based on measured inhibition for COc1ccc(Nc2ccccc2N)cc1 and give only the class name.
A) large value

Q) Assign a category based on measured inhibition for CCc1ccc(Nc2nnc(SCC(=O)Nc3cccnc3Cl)s2)cc1 and give only the class name.
A) small value

Q) Assign a category based on measured inhibition for CCOc1ccccc1NC(=O)CSc1nc2ccc(NC(=O)c3ccccc3Cl)cc2s1 and give only the class name.
A) small value

* * *

Assay: M. tuberculosis growth inhibition, HTS (AID 1259417);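 further: bacteria grown with compound for 5 days at 37 °C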
Conditions: M. tuberculosis growth inhibition; stronger effect = higher value; concentration not given here
The whole screen tested about 1,100 compounds, of which about 760 (69%) were called active. So high a share suggests a set chosen from earlier hits. Some of the results follow.
Please mark Satisfied if the recorded inhibition is equal to or greater than 20%, and Not satisfied if it falls below.

compound=Cc1c(Cc2ccccc2)c(NCCCO)n2c(nc3ccccc32)c1C#N category_label=Satisfied
compound=CCOC(=O)COc1ccc2c(c1)c(C(=O)OCC)c(C)n2CC category_label=Satisfied
compound=CCOc1ccc(NC(=O)c2c(NC(=O)CNCCN3CCOCC3)sc3c2CCC3)cc1 category_label=Satisfied

Q) Item CCOC(=O)c1c(C)n(C)c2ccc(OC(C)C(=O)OC)cc12 (stereo unspecified) with inhibition of 20% or above?
A) Not satisfied

Q) Item Cc1cc(=O)[nH]c(-n2nc(C)cc2C)n1 with inhibition of 20% or above?
A) Satisfied

Q) Item COC(=O)COc1ccc(NC(=O)c2ccc(-c3ccccc3)cc2)cc1 with inhibition of 20% or above?
A) Satisfied

Q) Item COc1ccc(Cl)cc1NC(=O)C(C)N1CCN(C/C=C/c2ccccc2)CC1 (stereo unspecified) with inhibition of 20% or above?
A) Not satisfied

Q) Item COCCCNC(=O)c1c(NC(=O)c2ccccc2OC)sc2c1CCCC2 with inhibition of 20% or above?
A) Not satisfied

Q) Item Cc1ccc(C)c(-c2nnc(NC(=O)c3ccc([N+](=O)[O-])o3)o2)c1 with inhibition of 20% or above?
A) Not satisfied

Q) Item O=C(CNCCN1CCOCC1)Nc1sc2c(c1C(=O)Nc1ccccc1)CCC2 with inhibition of 20% or above?
A) Satisfied

Q) Item CCOC(=O)Cn1nnc(-c2ccc(OCc3ccccc3F)cc2)n1 with inhibition of 20% or above?
A) Satisfied

* * *

Assay: M. tuberculosis growth inhibition, HTS (AID 1259417);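 further: bacteria grown with compound for 5 days at 37 °C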
Settings: M. tuberculosis DsRed fluorescence growth inhibition; concentration not given here
Hit rate of the full screen: of about 1,100 compounds, about 760 (69%) were called active. The rule behind the calls is not given here. The set was probably picked from earlier hits. The list shows a part of the results.
Respond with a class label; see active, inactive

Example entries and their recorded answers appear below.
molecule=OCCOCCNc1nc(Nc2cccc(F)c2)nc2c1cnn2-c1ccccc1 category_label=inactive
molecule="CSc1nc2ccc(NC(=O)C3CC(=O)N(Cc4ccccc4)C3)cc2s1 (stereo not drawn)" category_label=inactive
molecule=CC(C)(C)C(=O)NC(=S)NNC(=O)C(c1ccccc1)c1ccccc1 category_label=active
molecule="O=C(NCC1COc2ccccc2O1)c1ccc(NC(=O)C2COc3ccccc3O2)cc1 (stereo not drawn)" category_label=inactive
molecule=CCn1c(COc2cccc3ccccc23)nnc1SCC(=O)OC1CCCCC1 category_label=active
molecule=CCOc1ccc(Nc2nc(NCc3ccco3)c3ccccc3n2)cc1 category_label=active
molecule=Cn1c(COc2cccc3ccccc23)nnc1SCC(=O)OC1CCCCC1 category_label=active
molecule=Cc1ccc(C)c(-c2nnc(NC(=O)C3CC3)o2)c1 category_label=active
molecule=O=C(Nc1nnc(-c2ccc(Cl)cc2)o1)C1CCCCC1 category_label=inactive
molecule="Cc1ccc(C)c(-c2nnc(NC(=O)C3COc4ccccc4O3)o2)c1 (stereo not drawn)" category_label=active

Q) Any idea what this test logged for CCn1c(CNc2ccc(F)cc2)nnc1SCC(=O)OC1CCCCC1 ?
A) inactive

Q) Any idea what this test logged for O=S1(=O)C=CC2ON=C(c3ccc(C(F)(F)F)cc3)C21 (stereo not drawn) ?
A) active

Q) Any idea what this test logged for O=C1N(Cc2ccccc2Cl)c2ccc(Br)cc2C1(O)c1c[nH]c2ccccc12 (stereo not drawn) ?
A) inactive

Q) Any idea what this test logged for CCOC(=O)Cn1cc(C=C(C#N)c2nc3ccc(OC)cc3[nH]2)c2ccccc21 ?
A) inactive

Q) Any idea what this test logged for Cc1ccc(C)c(-c2nnc(NC(=O)C3=COCCO3)o2)c1 ?
A) inactive

Q) Any idea what this test logged for O=C(Nc1nnc(-c2ccc(Cl)s2)o1)C1CCCCC1 ?
A) active

Q) Any idea what this test logged for C=CCOC(=O)COc1ccc2cc(-c3ccc(OC)cc3)c(=O)oc2c1 ?
A) active

Q) Any idea what this test logged for C=CCOC(=O)COc1ccc2c(-c3cc4ccccc4oc3=O)cc(=O)oc2c1 ?
A) active

Q) Any idea what this test logged for CCC(=O)Nc1nnc(-c2ccc(C)cc2C)o1 ?
A) inactive

Q) Any idea what this test logged for O=C(/C=C/c1cccc([N+](=O)[O-])c1)c1cccs1 ?
A) active
